system: Liver microsomes; test: Intrinsic clearance in human liver microsomes at 1 uM after 60 mins; assay type: ADME, Microsome; conditions: 1 h

compound	unit of measurement	CLH
O=C1COc2ccccc2N1CCCN1CCC(n2c(=O)[nH]c3c(F)cccc32)CC1	L/min	13
O=C(Cc1ccccc1)NC1CCN(CCCN2C(=O)COc3ccccc32)CC1	L/min	3.4
O=C1COc2ccccc2N1CCCN1CCC(n2c(=O)[nH]c3cccc(F)c32)CC1	L/min	12
O=c1[nH]c2ccccc2n1C1CCN(CCOc2ccccc2)CC1 [OXIPEROMIDE]	L/min	1.4
O=C1COc2ccccc2N1CCCN1CCC(n2c(=O)[nH]c3ncccc32)CC1	L/min	2.6
O=C1COc2ccccc2N1CCCN1CCC(n2c(=O)[nH]c3ccc(F)cc32)CC1	L/min	8.7
O=C1CCc2cccnc2N1CCCN1CCC(n2c(=O)[nH]c3ccccc32)CC1	L/min	1.3

These entries and their values trace back to ChEMBL document CHEMBL2057071.
